# protocol-description: Enzymatic stability in rat intestinal homogenate pH 6.5 at 37 °C
# settings: Sprague-Dawley, pH 6.5, Half-lives, t1/2 Intestinal Homogenate pH 6.5, Sp isomer, rat intestinal homogenate pH 6.5, 37 °C
measured-property: half-life at 0.5 mg/ml

INSERT INTO assay_data (compound, measured_property, result) VALUES
  ('COC(=O)[C@@H](N)Cc1ccc(OP2(=O)CO[C@@H](Cn3cnc4c(N)ncnc43)CO2)cc1 (stereo partly shown)', 'half-life at 0.5 mg/ml', '< 0.5 h'),
  ('CC(C)(C)NC(=O)[C@H](N)Cc1ccc(OP2(=O)CO[C@@H](Cn3ccc(N)nc3=O)CO2)cc1 (stereo partly shown)', 'half-life at 0.5 mg/ml', '3.85 h'),
  ('COC(=O)[C@H](Cc1ccc(OP2(=O)CO[C@@H](Cn3cnc4c(N)ncnc43)CO2)cc1)NC(=O)[C@@H](N)C(C)C (stereo partly shown)', 'half-life at 0.5 mg/ml', '< 0.5 h'),
  ('COC(=O)[C@H](N)Cc1ccc(OP2(=O)CO[C@@H](Cn3ccc(N)nc3=O)CO2)cc1 (stereo partly shown)', 'half-life at 0.5 mg/ml', '1.2 h'),
  ('CC(C)CNC(=O)[C@@H](N)Cc1ccc(OP2(=O)CO[C@@H](Cn3cnc4c(N)ncnc43)CO2)cc1 (mixture of isomers)', 'half-life at 0.5 mg/ml', '1.9 h'),
  ('COC(=O)[C@@H](N)Cc1ccc(OP2(=O)CO[C@@H](Cn3ccc(N)nc3=O)CO2)cc1 (stereo partly shown)', 'half-life at 0.5 mg/ml', '< 0.5 h'),
  ('CC(C)OC(=O)[C@@H](N)Cc1ccc(OP2(=O)CO[C@@H](Cn3ccc(N)nc3=O)CO2)cc1 (mixture of isomers)', 'half-life at 0.5 mg/ml', '< 0.5 h');

* * *

# protocol-description: Stability in rat plasma
# settings: Sp diastereomer
measured-property: half-life

INSERT INTO measurements (compound, measured_property, result) VALUES
  ('CC(C)CNC(=O)[C@@H](N)Cc1ccc(OP2(=O)CO[C@@H](Cn3cnc4c(N)ncnc43)CO2)cc1 (mixture of isomers) [Compound 11]', 'half-life', '23 min');

* * *

# protocol-description: Stability in rat plasma
# settings: Rp diastereomer
measured-property: half-life (h)

INSERT INTO assay_data (compound, unit_spec, numeric_result) VALUES
  ('CC(C)CNC(=O)[C@@H](N)Cc1ccc(OP2(=O)CO[C@@H](Cn3cnc4c(N)ncnc43)CO2)cc1 (mixture of isomers)', 'h', 3.55);

* * *

# Test system: KB cells
# settings: human
pIC50: −log10 of the molar value.
measured-property: pIC50

INSERT INTO measurements (compound, measured_property, result) VALUES
  ('CC(C)CNC(=O)[C@@H](N)Cc1ccc(OP2(=O)CO[C@@H](Cn3cnc4c(N)ncnc43)CO2)cc1 (mixture of isomers)', 'pIC50', '< 4.00'),
  ('CC(C)OC(=O)[C@@H](N)Cc1ccc(OP2(=O)CO[C@@H](Cn3ccc(N)nc3=O)CO2)cc1 (mixture of isomers)', 'pIC50', '< 4.00');
